- Tested on: Zymoseptoria tritici (SEPTTR-184)
- protocol.notes: Cyp51 dsRNA tile (fragment) foliar application bioassay (Example 6)
- Assay type: in vivo
- condition.parameters: 3 days curative; rate 12.5 ppm; average of 2 trials
The entries below are paired with their reported Disease Control (%) SEPTTR-184 3DC.
Expressed in %, but write only the number.

molecule: MgCyp51-T6: dsRNA tile of Zymoseptoria tritici Cyp51, 280 bp, location 881-1160 (nucleic acid, listed as Zymoseptoria tritici) ATGCCATTCCCGACAAGGAGATTGCTCATATGATGATTGCGCTGCTCATGGCCGGCCAGCACTCTTCATCTGCGACCGAGTCCTGGATCACTCTCCGCCTCGCATCCCGCCCCGACATCCAAGACGAACTCCTCCAAGAACAAAAGGATATGCTCGGTGTGAACGCCGACGGCAGTATCAAGGAGCTCACATACGCCAACCTCTCGAAACTCACCCTCCTCAATCAAGTCGTCAAAGAAACCCTTCGTATTCACGCTCCAATCCACTCCATTCTGCGCAA
Disease Control (%) SEPTTR-184 3DC: 46

Would you kindly share the measured Disease Control (%) SEPTTR-184 3DC for MgCyp51-T2: dsRNA tile of Zymoseptoria tritici Cyp51, 165 bp, location 48-212 (nucleic acid, listed as Zymoseptoria tritici) CCAGACCAGCCTCTGGAAACTTGTCGGACTTGGATTCCTCGCCTTCAGCACGCTCGCCATCCTCCTCAATGTCCTCTCACAACTTCTCTTCCGTGGCAAGTTGTCCGATCCGCCACTCGTATTCCACTGGGTGCCCTTCATCGGAAGCACCATCACATACGGCAT ?
72
